All figures here come from PubChem BioAssay (Tox21).

# measured.target: Aromatase (Homo sapiens)
# assay.method.text: qHTS assay to identify aromatase inhibitors (AID 743083); further: nearly all actives have a fitted effect of over 55% in size
# assay.conditions: MCF-7 aro ERE, testosterone-driven ERE luciferase, 24 h; series mostly up to 70.3 µM
Results filed as inconclusive are left out. The source made the active and inactive calls. The call rests on the fitted dose curve; in most records, active means well fitted inhibition curve with a large enough effect in the repeat runs; inconclusive means weak or mixed curves; inactive means no such curve, though single readings can be large or run the other way.
Labels: active, inactive

{"compound": "CCOP(=S)(OCC)Oc1nc(Cl)n(C(C)C)n1", "measured.target": "Aromatase (Homo sapiens)", "category.label": "inactive"}
{"compound": "Nc1cnn(-c2ccccc2)c(=O)c1Cl", "measured.target": "Aromatase (Homo sapiens)", "category.label": "inactive"}
{"compound": "CC(Cl)(Cl)[N+](=O)[O-]", "measured.target": "Aromatase (Homo sapiens)", "category.label": "inactive"}
{"compound": "COP(N)(=S)Oc1ccccc1C(=O)OC(C)C (stereo unspecified)", "measured.target": "Aromatase (Homo sapiens)", "category.label": "inactive"}
{"compound": "COC(=O)c1c(C(F)F)nc(C(F)(F)F)c(C2=NCCS2)c1CC(C)C", "measured.target": "Aromatase (Homo sapiens)", "category.label": "inactive"}
{"compound": "C[C@H]1CCC[C@H](O)CCCCCc2cc(O)cc(O)c2C(=O)O1", "measured.target": "Aromatase (Homo sapiens)", "category.label": "active"}
{"compound": "CNC(=O)O/N=C(\\C)SC", "measured.target": "Aromatase (Homo sapiens)", "category.label": "inactive"}
{"compound": "CC(=O)CC(c1ccc(Cl)cc1)c1c(O)c2ccccc2oc1=O (stereo unspecified)", "measured.target": "Aromatase (Homo sapiens)", "category.label": "inactive"}
{"compound": "Nc1cc2c3c(c1)C(c1ccccc1)=N[C@@H](NC(=O)c1cccnc1)C(=O)N3CC2", "measured.target": "Aromatase (Homo sapiens)", "category.label": "inactive"}
{"compound": "O=NN1CCCCC1", "measured.target": "Aromatase (Homo sapiens)", "category.label": "inactive"}
{"compound": "Cc1cccc(C#N)c1", "measured.target": "Aromatase (Homo sapiens)", "category.label": "inactive"}
{"compound": "CNC(=O)Oc1ccc(N(C)C)c(C)c1", "measured.target": "Aromatase (Homo sapiens)", "category.label": "inactive"}
{"compound": "CCC(=O)c1ccccc1", "measured.target": "Aromatase (Homo sapiens)", "category.label": "inactive"}
{"compound": "CCCSC(=O)N(CCC)CCC", "measured.target": "Aromatase (Homo sapiens)", "category.label": "inactive"}
{"compound": "COc1cccc(C(=O)NN(C(=O)c2cc(C)cc(C)c2)C(C)(C)C)c1C", "measured.target": "Aromatase (Homo sapiens)", "category.label": "inactive"}
{"compound": "CCC(C)n1c(=O)[nH]c(C)c(Br)c1=O (stereo unspecified)", "measured.target": "Aromatase (Homo sapiens)", "category.label": "inactive"}
{"compound": "Cc1nc(N)nc(N)n1", "measured.target": "Aromatase (Homo sapiens)", "category.label": "inactive"}
{"compound": "[As]#[In]", "measured.target": "Aromatase (Homo sapiens)", "category.label": "inactive"}
{"compound": "CCC1(c2ccccc2)C(=O)NC(=O)NC1=O", "measured.target": "Aromatase (Homo sapiens)", "category.label": "inactive"}
{"compound": "O=C(CCCN1CCC(n2c(=O)[nH]c3ccccc32)CC1)c1ccc(F)cc1", "measured.target": "Aromatase (Homo sapiens)", "category.label": "inactive"}
{"compound": "CCOC(=O)NC(=S)Nc1ccccc1NC(=S)NC(=O)OCC", "measured.target": "Aromatase (Homo sapiens)", "category.label": "inactive"}
{"compound": "COc1ccc2c(c1OC)CN1CCc3cc4c(cc3C1C2)OCO4 (stereo unspecified)", "measured.target": "Aromatase (Homo sapiens)", "category.label": "inactive"}
{"compound": "CC(CCc1ccccc1)NC(C)C(O)c1ccc(O)cc1 (stereo unspecified)", "measured.target": "Aromatase (Homo sapiens)", "category.label": "inactive"}
{"compound": "CN(C)CCc1ccc(O)cc1", "measured.target": "Aromatase (Homo sapiens)", "category.label": "inactive"}
{"compound": "CC(=O)[C@H]1CC[C@H]2[C@@H]3CC[C@H]4C[C@H](O)CC[C@]4(C)[C@H]3C(=O)C[C@]12C", "measured.target": "Aromatase (Homo sapiens)", "category.label": "inactive"}
{"compound": "O=P(O)(Oc1ccccc1)Oc1ccccc1", "measured.target": "Aromatase (Homo sapiens)", "category.label": "inactive"}
{"compound": "CCCCP(CCCC)CCCC", "measured.target": "Aromatase (Homo sapiens)", "category.label": "inactive"}
{"compound": "COc1cc(OC)nc(NC(=O)NS(=O)(=O)c2ncccc2C(=O)N(C)C)n1", "measured.target": "Aromatase (Homo sapiens)", "category.label": "inactive"}
{"compound": "Nc1n[nH]c(N)n1", "measured.target": "Aromatase (Homo sapiens)", "category.label": "inactive"}
{"compound": "N#Cc1ccncc1", "measured.target": "Aromatase (Homo sapiens)", "category.label": "inactive"}
{"compound": "CC(COc1ccc(Oc2ccccc2)cc1)Oc1ccccn1 (stereo unspecified)", "measured.target": "Aromatase (Homo sapiens)", "category.label": "inactive"}
{"compound": "C[N+](C)=CCl", "measured.target": "Aromatase (Homo sapiens)", "category.label": "inactive"}
{"compound": "O=C(NCO)NCO", "measured.target": "Aromatase (Homo sapiens)", "category.label": "inactive"}
{"compound": "CC1(C)COP(Oc2ccccc2)OC1", "measured.target": "Aromatase (Homo sapiens)", "category.label": "inactive"}
{"compound": "CSc1ccc(C(=O)C(C)(C)N2CCOCC2)cc1", "measured.target": "Aromatase (Homo sapiens)", "category.label": "inactive"}
{"compound": "O=[N+]([O-])c1cccc2cccnc12", "measured.target": "Aromatase (Homo sapiens)", "category.label": "inactive"}
{"compound": "N#CCCC#N", "measured.target": "Aromatase (Homo sapiens)", "category.label": "inactive"}
{"compound": "COc1cccc2c1cc([N+](=O)[O-])c1c(C(=O)O)cc3c(c12)OCO3", "measured.target": "Aromatase (Homo sapiens)", "category.label": "active"}
{"compound": "O=S(=O)(O)C(F)(F)C(F)(F)C(F)(F)C(F)(F)C(F)(F)C(F)(F)F", "measured.target": "Aromatase (Homo sapiens)", "category.label": "inactive"}
{"compound": "CCCCOP(=O)(O)OCCCC", "measured.target": "Aromatase (Homo sapiens)", "category.label": "inactive"}
{"compound": "COc1ncc(F)c2nc(S(=O)(=O)Nc3c(F)cccc3F)nn12", "measured.target": "Aromatase (Homo sapiens)", "category.label": "inactive"}
{"compound": "Cc1coc2c1CCC(C)C2 (stereo unspecified)", "measured.target": "Aromatase (Homo sapiens)", "category.label": "inactive"}
{"compound": "CC(C)CC(N(C)C)C1(c2ccc(Cl)cc2)CCC1 (stereo unspecified)", "measured.target": "Aromatase (Homo sapiens)", "category.label": "inactive"}
{"compound": "CCOP(=S)(OCC)Oc1cc(-c2ccccc2)on1", "measured.target": "Aromatase (Homo sapiens)", "category.label": "inactive"}
{"compound": "CN/C(=N\\[N+](=O)[O-])NCC1CCOC1 (stereo unspecified)", "measured.target": "Aromatase (Homo sapiens)", "category.label": "inactive"}
{"compound": "O=C1CN=C(c2ccccc2)c2cc([N+](=O)[O-])ccc2N1", "measured.target": "Aromatase (Homo sapiens)", "category.label": "inactive"}
{"compound": "COc1cc2c(cc1OC)[C@@]13CCN4CC5=CCO[C@H]6CC(=O)N2[C@H]1[C@H]6[C@H]5C[C@H]43", "measured.target": "Aromatase (Homo sapiens)", "category.label": "inactive"}
{"compound": "ClC(Cl)Br", "measured.target": "Aromatase (Homo sapiens)", "category.label": "inactive"}
{"compound": "CC(=O)Nc1cc([As](=O)(O)O)ccc1O", "measured.target": "Aromatase (Homo sapiens)", "category.label": "inactive"}
{"compound": "OCCSCSCCO", "measured.target": "Aromatase (Homo sapiens)", "category.label": "inactive"}
{"compound": "CC(C)CP(=S)(S)CC(C)C", "measured.target": "Aromatase (Homo sapiens)", "category.label": "inactive"}
{"compound": "O=C(Cc1ccccc1)OCc1ccccc1", "measured.target": "Aromatase (Homo sapiens)", "category.label": "inactive"}
{"compound": "COc1cc(OC)nc(Oc2cccc(Oc3nc(OC)cc(OC)n3)c2C(=O)O)n1", "measured.target": "Aromatase (Homo sapiens)", "category.label": "inactive"}
{"compound": "CNC(=O)N(C)c1nc2ccccc2s1", "measured.target": "Aromatase (Homo sapiens)", "category.label": "inactive"}
{"compound": "CC(C)NCC(O)c1ccc(N)c(C#N)c1 (stereo unspecified)", "measured.target": "Aromatase (Homo sapiens)", "category.label": "inactive"}
{"compound": "ClC(Br)Br", "measured.target": "Aromatase (Homo sapiens)", "category.label": "inactive"}
